Below, each of the compounds is paired with its reported IC50 value.
Target: Human MAT2A (Homo sapiens, UniProt P31153)
Construct: Human MAT2A: Cepter, amino acids 1-395; purchased Cepter clone ID 329, lot 00023-123; clone ID 334, lot 00023-148
Sequence (P31153 whole entry, the tested form may be a part): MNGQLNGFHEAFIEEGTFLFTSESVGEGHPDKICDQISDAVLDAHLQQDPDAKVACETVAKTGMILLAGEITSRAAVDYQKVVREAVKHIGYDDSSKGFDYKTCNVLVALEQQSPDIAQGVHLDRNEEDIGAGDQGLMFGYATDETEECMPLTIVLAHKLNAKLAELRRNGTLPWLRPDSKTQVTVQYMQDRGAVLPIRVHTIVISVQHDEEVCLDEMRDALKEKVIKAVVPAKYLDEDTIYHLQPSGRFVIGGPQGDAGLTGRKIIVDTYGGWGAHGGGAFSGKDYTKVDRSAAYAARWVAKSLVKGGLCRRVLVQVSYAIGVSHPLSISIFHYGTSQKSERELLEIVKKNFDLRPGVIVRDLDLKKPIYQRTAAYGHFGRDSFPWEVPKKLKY
Assay: Phosphate Sensor Fluorescence Assay (Biologic Example A)
Format: biochemical
Conditions: MAT2A enzyme inhibition, Biological Example A; 500 uM L-methionine, 500 uM ATP; class symbols

[
  {
    "input-smiles": "CCCNS(=O)(=O)c1c(-c2ccccc2)c2cc(Cl)ccc2[nH]c1=O",
    "IC50": "1000 to 10000 nM"
  },
  {
    "input-smiles": "Cc1ccccc1-c1c(O)c(=O)[nH]c2ccc(C(F)(F)F)cc12",
    "IC50": "10 to 200 nM"
  },
  {
    "input-smiles": "COc1c(-c2ccccc2)c2cc(Cl)ccc2[nH]c1=O",
    "IC50": "200 to 500 nM"
  },
  {
    "input-smiles": "COc1c(-c2ccccc2)c2cc(Br)ccc2[nH]c1=O",
    "IC50": "10 to 200 nM"
  },
  {
    "input-smiles": "O=c1[nH]c2ccc(C(F)(F)F)cc2c(-c2ccccc2)c1O",
    "IC50": "10 to 200 nM"
  }
]
